Tested on: MCF7
Measurement protocol: Cytotoxicity against human MCF7 cells at 0.0003 to 100 uM after 48 hrs by ATPlite assay
Type: cell-based
Conditions used: mcf7, 48 h
Measurement type: Activity

COc1cc(-c2oc3c(O)cc(-c4oc5cc(O)cc(O)c5c(=O)c4O)cc3c2C)ccc1O    Toxic
COc1cc([C@@H]2Oc3c(O)cc(-c4oc5cc(O)cc(O)c5c(=O)c4O)cc3[C@H]2CO)ccc1O    Toxic
COc1cc(C2Oc3cc(-c4oc5cc(O)cc(O)c5c(=O)c4O)ccc3OC2CO)ccc1O (stereo not drawn) [DEHYDROSILYLBIN]    Toxic

----------
Measurement protocol: Partition coefficient, logP of the compound in octan-1-ol and phosphate buffer at pH 7.4 at 25 degC after 2 hrs by UV-vis spectrometer
Format: physicochemical
Conditions used: octan-1-ol/phosphate buffer
Catalogue of logD at 2 h readings, one per entry.
Lab note: record the figure alone, no unit after it.

COc1cc([C@@H]2Oc3c(O)cc([C@@H]4CC(=O)c5c(O)cc(O)cc5O4)cc3[C@H]2CO)ccc1O    -0.37

Moving on to another molecule below.
Reported logD at 2 h of `COc1cc(-c2oc3c(O)cc(-c4oc5cc(O)cc(O)c5c(=O)c4O)cc3c2C)ccc1O` : -0.24
